Listed here are molecules together with their documented z-score of subpopulation abundance.
# System: Saccharomyces cerevisiae BY4741 SeMeCo community
# run.description: z-score of subpopulation abundance vs DMSO median, subpopulation auxotrophic for H; higher = larger share of this subpopulation than in DMSO controls
# measurement.context: 10 µM; 24 h; SM minimal medium; subpopulation (auxotrophy): H
Just the number, please, no unit attached.

NC1CCN(c2nc3c(cc2F)c(=O)c(C(=O)O)cn3-c2ccc(F)cc2F)C1 (centres undefined) [Tosufloxacin p-Toluenesulfonate Hydrate] :: 0.41
CC(=O)C1C(=O)C=C(C)OC1=O (centres undefined) [Sodium dehydroacetate] :: -1.35
CO[C@@H]1[C@@H](OC(N)=O)[C@@H](O)[C@H](Oc2ccc3c(O)c(NC(=O)c4ccc(O)c(CC=C(C)C)c4)c(=O)oc3c2C)OC1(C)C [Novobiocin Sodium] :: 1.97

Attention now shifts to the item below.
Req: I'd like to know its z-score of subpopulation abundance. The molecule in question is COc1cc(C(C)=O)ccc1OCCCN1CCC(c2noc3cc(F)ccc23)CC1 [Iloperidone]
Resp: 0.05

---

# Tested on: Saccharomyces cerevisiae BY4741 SeMeCo community
# run.description: z-score of subpopulation abundance vs DMSO median, subpopulation auxotrophic for HLU; higher = larger share of this subpopulation than in DMSO controls
# measurement.context: 10 µM; 24 h; SM minimal medium; subpopulation (auxotrophy): HLU
Counter-ions that a name gives are not always drawn.
assay.readout: z-score of subpopulation abundance
Just the number, please, no unit attached.

CCC1=C(C)CN(C(=O)NCCc2ccc(S(=O)(=O)NC(=O)N[C@H]3CC[C@H](C)CC3)cc2)C1=O [Glimepiride] :: 0.26
O=C(c1ccc(OCCN2CCCCC2)cc1)c1c(-c2ccc(O)cc2)sc2cc(O)ccc12 :: 0.52
Cn1c(=O)c2[nH]cnc2n(C)c1=O :: -0.5
COC(=O)Nc1nc2cc(C(=O)c3ccc(F)cc3)ccc2[nH]1 :: 0.3
CCCCN1CCCC[C@H]1C(=O)Nc1c(C)cccc1C [Levobupivacaine HCl] :: -0.48

Req: I'd like to know its z-score of subpopulation abundance. The compound in question is `O=C1[C@@H]2[C@H]3CC[C@H](C3)[C@@H]2C(=O)N1C[C@@H]1CCCC[C@H]1CN1CCN(c2nsc3ccccc23)CC1`
Resp: -0.09

Req: I'd like to know its z-score of subpopulation abundance. The compound in question is C[C@@H](NCCCc1cccc(C(F)(F)F)c1)c1cccc2ccccc12 [Cinacalcet HCl]
Resp: -0.17

Req: I'd like to know its z-score of subpopulation abundance. The compound in question is `CCn1cc(C(=O)O)c(=O)c2cc(F)c(N3CCNCC3)nc21`
Resp: 0.23

Req: I'd like to know its z-score of subpopulation abundance. The compound in question is CC(=O)OCC[N+](C)(C)C [Acetylcholine iodide]
Resp: 0.05

---

Listed here are compounds together with their documented z-score of prototroph abundance.
# Test system: Saccharomyces cerevisiae BY4741 SeMeCo community
# run.description: z-score of prototroph abundance vs DMSO median; higher = larger share of this subpopulation than in DMSO controls
# measurement.context: 10 µM; 24 h; SM minimal medium; subpopulation (auxotrophy): Prototroph
Where a name gives a salt, the structure may show the parent alone.
Just the number, please, no unit attached.

Req: I'd like to know its z-score of prototroph abundance. The compound in question is CC(=O)NS(=O)(=O)c1ccc(N)cc1 [Sulfacetamide Sodium]
Resp: -0.69

Req: I'd like to know its z-score of prototroph abundance. The compound in question is `Cc1cc(NS(=O)(=O)c2ccc(N)cc2)no1`
Resp: -0.28

Req: I'd like to know its z-score of prototroph abundance. The compound in question is `NC(=O)Cc1cccc(C(=O)c2ccccc2)c1N`
Resp: 0.25

Req: I'd like to know its z-score of prototroph abundance. The compound in question is C[N+](C)(C)CCOC(=O)CCC(=O)OCC[N+](C)(C)C [Succinylcholine Chloride Dihydrate]
Resp: 0.17

Req: I'd like to know its z-score of prototroph abundance. The compound in question is COc1cc2c(cc1OC)C(=O)C(CC1CCN(Cc3ccccc3)CC1)C2 (stereo not given) [Donepezil HCl]
Resp: 0.26

Req: I'd like to know its z-score of prototroph abundance. The compound in question is CCNC(=O)[C@@H]1CCCN1C(=O)[C@H](CCCNC(=N)N)NC(=O)[C@H](CC(C)C)NC(=O)[C@@H](CC(C)C)NC(=O)[C@H](Cc1ccc(O)cc1)NC(=O)[C@H](CO)NC(=O)[C@H](Cc1c[nH]c2ccccc12)NC(=O)[C@H](Cc1c[nH]cn1)NC(=O)[C@@H]1CCC(=O)N1 [Leuprolide Acetate]
Resp: -0.62

Req: I'd like to know its z-score of prototroph abundance. The compound in question is CO[C@@H]1[C@@H](OC(N)=O)[C@@H](O)[C@H](Oc2ccc3c(O)c(NC(=O)c4ccc(O)c(CC=C(C)C)c4)c(=O)oc3c2C)OC1(C)C [Novobiocin Sodium]
Resp: -1.53

Req: I'd like to know its z-score of prototroph abundance. The compound in question is CN1CCN(CC(=O)N2c3ccccc3C(=O)Nc3cccnc32)CC1 [Pirenzepine dihydrochloride]
Resp: 0.72

Req: I'd like to know its z-score of prototroph abundance. The compound in question is CC1(C)S[C@@H]2[C@H](NC(=O)[C@H](N)c3ccc(O)cc3)C(=O)N2[C@H]1C(=O)O [Amoxicillin]
Resp: -0.05

Req: I'd like to know its z-score of prototroph abundance. The compound in question is CCCN[C@H]1CCc2nc(N)sc2C1 [Pramipexole dihydrochloride]
Resp: 0.25

Req: I'd like to know its z-score of prototroph abundance. The compound in question is Cc1nc(Nc2ccc(F)cc2)nc(N2CCc3ccccc3C2C)c1C (stereo not given) [Revaprazan Hydrochloride]
Resp: -0.48

---

# Test system: Saccharomyces cerevisiae BY4741 SeMeCo community
# run.description: mean cell size (pixel area) (pixels); higher = larger cells
# measurement.context: 10 µM; 24 h; SM minimal medium
Where a name gives a salt, the structure may show the parent alone.
assay.readout: mean cell size
Just the number, please, no unit attached.

Clc1ccc(COC(Cn2ccnc2)c2ccc(Cl)cc2Cl)cc1 (centres undefined) [Econazole] :: 11.9
CS(=O)(=O)c1ccc([C@@H](O)[C@@H](CF)NC(=O)C(Cl)Cl)cc1 [Florfenicol] :: 12.4

Req: Give mean cell size (Saccharomyces cerevisiae BY4741 SeMeCo community) of the following compound: CCCCCCCN(CC)CCCC(O)c1ccc(NS(C)(=O)=O)cc1 (centres undefined) [Ibutilide Fumarate]
Resp: 12.5

Req: Give mean cell size (Saccharomyces cerevisiae BY4741 SeMeCo community) of the following compound: CC(C)(C)C(=O)OCOC(=O)[C@@H]1N2C(=O)[C@@H](/N=C/N3CCCCCC3)[C@H]2SC1(C)C [Pivmecillinam hydrochloride]
Resp: 12.3

Req: Give mean cell size (Saccharomyces cerevisiae BY4741 SeMeCo community) of the following compound: CC[C@H]1OC(=O)[C@H](C)[C@@H](O[C@H]2C[C@@](C)(OC)[C@@H](O)[C@H](C)O2)[C@H](C)[C@@H](O[C@@H]2O[C@H](C)C[C@H](N(C)C)[C@H]2O)[C@](C)(O)C[C@@H](C)C(=O)[C@H](C)[C@@H](O)[C@]1(C)O [Erythromycin thiocyanate]
Resp: 12.1

---

# Tested on: Saccharomyces cerevisiae BY4741 SeMeCo community
# run.description: z-score of subpopulation abundance vs DMSO median, subpopulation auxotrophic for U; higher = larger share of this subpopulation than in DMSO controls
# measurement.context: 10 µM; 24 h; SM minimal medium; subpopulation (auxotrophy): U
Where a name gives a salt, the structure may show the parent alone.
Returns one of Met or Not met; Met when z-score of subpopulation abundance is >= -0.2.

Cc1c(Nc2ncccc2C(=O)O)cccc1C(F)(F)F [Flunixin Meglumin] :: Met
N=C(N)NC(=O)c1nc(Cl)c(N)nc1N [Amiloride HCl] :: Not met
CNCCCN1c2ccccc2CCc2ccccc21 [Desipramine Hydrochloride] :: Met
CCN(CC)CC#CCOC(=O)C(O)(c1ccccc1)C1CCCCC1 (stereo not drawn) [Oxybutynin] :: Met
Clc1ccc(C(Cn2ccnc2)OCc2ccsc2Cl)c(Cl)c1 (stereo not drawn) [Tioconazole] :: Met

Req: Item N#CC(c1ccc(Cl)cc1)c1c(Cl)cc(-n2ncc(=O)[nH]c2=O)cc1Cl (stereo not drawn) [Diclazuril] with z-score of subpopulation abundance of -0.2 or above?
Resp: Not met

Req: Item CCC(C)C1OC2(CCC1C)CC1CC(CC=C(C)C(OC3CC(OC)C(OC4CC(OC)C(O)C(C)O4)C(C)O3)C(C)C=CC=C3COC4C(O)C(C)=CC(C(=O)O1)C34O)O2 (stereo not drawn) [Ivermectin] with z-score of subpopulation abundance of -0.2 or above?
Resp: Met

Req: Item CC1=C(C(=O)O)N2C(=O)[C@@H](NC(=O)[C@H](N)c3ccccc3)[C@H]2SC1 [Cephalexin] with z-score of subpopulation abundance of -0.2 or above?
Resp: Not met

Req: Item Nc1nc2[nH]cc(CCc3ccc(C(=O)N[C@@H](CCC(=O)O)C(=O)O)cc3)c2c(=O)[nH]1 [Pemetrexed] with z-score of subpopulation abundance of -0.2 or above?
Resp: Not met

Req: Item CCC1=C(C)CN(C(=O)NCCc2ccc(S(=O)(=O)NC(=O)N[C@H]3CC[C@H](C)CC3)cc2)C1=O [Glimepiride] with z-score of subpopulation abundance of -0.2 or above?
Resp: Not met

Req: Item Cc1cc(C)nc(NS(=O)(=O)c2ccc(N)cc2)n1 [Sulfamethazine Sodium Salt] with z-score of subpopulation abundance of -0.2 or above?
Resp: Not met

Req: Item CCC1(c2ccccc2)C(=O)NCNC1=O [Primidone] with z-score of subpopulation abundance of -0.2 or above?
Resp: Met

Req: Item COc1ccc(C2CNC(=O)C2)cc1OC1CCCC1 (stereo not drawn) [Rolipram] with z-score of subpopulation abundance of -0.2 or above?
Resp: Met

Req: Item CCN(Cc1ccncc1)C(=O)C(CO)c1ccccc1 (stereo not drawn) [Tropicamide] with z-score of subpopulation abundance of -0.2 or above?
Resp: Met

Req: Item CO[C@@H]1[C@H](OC(=O)/C=C/C=C/C=C/C=C/C(=O)O)CC[C@]2(CO2)[C@H]1[C@@]1(C)O[C@@H]1CC=C(C)C [Fumagillin] with z-score of subpopulation abundance of -0.2 or above?
Resp: Met

Req: Item O=C(N[C@H](CO)[C@H](O)c1ccc([N+](=O)[O-])cc1)C(Cl)Cl [Chloramphenicol] with z-score of subpopulation abundance of -0.2 or above?
Resp: Not met

Req: Item Cc1cccc(C)c1OCC(C)N (stereo not drawn) [Mexiletine HCl] with z-score of subpopulation abundance of -0.2 or above?
Resp: Met

Where these numbers come from: the supplement of paper PMC8975748
